target: AtHNL (Arabidopsis thaliana); construct: made in house; host or cells: E. coli BL21(DE3), plasmid pAtHNL (pET28a, NcoI/XhoI); format: biochemical
METRIC_NAME: Transformation (%)
Enter your answer as a number in %; do not include the unit.

Query (compound): `CCCCC(C)=O` ; field requested: Transformation (%)
48

Now give it for `CC(=O)CCC=C(C)C` too.
0

Would you mind doing `O=Cc1cccs1` as well?
68

Another compound to check: `O=CCCc1ccccc1`
99

Param item: `O=C1CCCCC1`
94

Now the same for `CCCCCCCCCC=O`
56

Another compound: `CC(=O)c1ccccc1F`
8

Another compound: `C=CCc1ccccc1`
97

Here is the next compound: `CC(=O)CCc1ccccc1`
1

Check `CCC/C=C/C=O` too.
53

Repeat for the following compound: `CC(=O)c1ccccc1`
7

Next compound up: `CCCCCCCCC(C)=O`
2

Request: `CCCCCC=O`
99

* * *

biological target: AtHNL (Arabidopsis thaliana, UniProt Q9LFT6); construct: made in house; host or cells: E. coli BL21(DE3), plasmid pAtHNL (pET28a, NcoI/XhoI); type: biochemical; conditions: pH 4
Sequence (Q9LFT6 whole entry): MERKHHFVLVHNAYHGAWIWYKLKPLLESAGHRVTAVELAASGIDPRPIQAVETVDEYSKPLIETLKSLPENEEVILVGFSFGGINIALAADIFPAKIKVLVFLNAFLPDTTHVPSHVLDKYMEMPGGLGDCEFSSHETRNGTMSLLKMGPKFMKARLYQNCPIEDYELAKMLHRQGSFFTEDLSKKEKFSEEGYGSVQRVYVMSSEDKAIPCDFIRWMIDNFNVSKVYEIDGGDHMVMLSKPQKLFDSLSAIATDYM
I'd appreciate it if you could supply Transformation (%) values for the items below.
Write the value in % as a bare number.

What does the data say about its Transformation (%)? Entry: `CC(=O)CCc1ccccc1`
9

`CCCCCC(C)=O` ?
9

Now consider `CCCCCC=O` and answer again.
98

* * *

molecular target: AtHNL (Arabidopsis thaliana, UniProt Q9LFT6); construct: made in house; host or cells: E. coli BL21(DE3), plasmid pAtHNL (pET28a, NcoI/XhoI); format: biochemical; settings: pH 4
METRIC_NAME: Transformation (%)

Could you share which Transformation (%) value was measured for CCCC(C)=O [2-pentanone] ?
>95%

Another: CCC(C)=O [2-butanone]
>95%

Now the same for O=Cc1ccccc1 [Benzaldehyde]
>99.9%

Also, CCCCCCC=O [Heptanal] please.
>99.9%
